Test: Antibacterial activity against active stage of Mycobacterium bovis BCG ATCC 35743 assessed as cell viability after 8 days by nitrate reductase assay
Format: functional, Mycobacterium bovis BCG str. ATCC 35743
Conditions: Mycobacterium tuberculosis variant bovis BCG, ATCC 35743, 192 h
Recorded metric: MIC90 (µg/mL)
Numeric answer only, unit µg/mL assumed.

Previously resolved entries follow.
[
  {
    "Smiles text": "CCCCCn1cnc2sc(CC)cc2c1=O",
    "MIC90 (µg/mL)": 10.1
  },
  {
    "Smiles text": "CCCCCCc1cc2c(=O)n(CC3CC3)cnc2s1",
    "MIC90 (µg/mL)": 1.37
  }
]

// switching to the query compound
Fill blank: measured MIC90 of the compound `CCCCCc1cc2c(=O)n(CC3CC3)cnc2s1` is ____. 4.95

----------
Experiment: Selectivity index, ratio of GI50 for human HCT116 cells to MIC90 for active stage of Mycobacterium tuberculosis H37Ra
Format: toxicity, cell-based, HCT-116
Conditions: read-out: Selectivity Index
Doc: threshold 4 (exclusive). Items with selectivity ratio beneath it return YES; others return NO.

Some solved entries appear below for comparison.
[
  {
    "Smiles text": "CCCCCCc1cc2c(=O)n(CCN=[N+]=[N-])cnc2s1",
    "Classification": "YES"
  },
  {
    "Smiles text": "CCCCCCCCCCc1cc2c(=O)n(CCO)cnc2s1",
    "Classification": "NO"
  }
]

selectivity ratio under 4? Item: `CCCCCCCc1cc2c(=O)n(CCN=[N+]=[N-])cnc2s1` NO

Same thing, different compound: `CCCCCCCc1cc2c(=O)n(CC3CC3)cnc2s1` YES

----------
Assay: Selectivity index, ratio of GI50 for human MCF7 cells to MIC90 for active stage of Mycobacterium bovis BCG ATCC 35743
Assay type: toxicity, cell-based
Conditions: read-out: Selectivity Index
Entries and their selectivity ratio

Report selectivity ratio for `C=CCCCCCCCc1cc2c(=O)n(CCBr)cnc2s1` please. 11

----------
Experiment: Cytotoxicity against human MCF7 cells incubated for 1 to 11 days by MTT assay
Type: cell-based
Recorded metric: GI50 (µg/mL)
Unit µg/mL implied. Number only.

Here is how some compounds turned out for GI50.
[
  {
    "Smiles text": "CCCCCCc1cc2c(=O)n(CC3CC3)cnc2s1",
    "GI50 (µg/mL)": 24.8
  },
  {
    "Smiles text": "CCCCCCCc1cc2c(=O)n(CCCBr)cnc2s1",
    "GI50 (µg/mL)": 19.7
  },
  {
    "Smiles text": "C=CCCCCCCCc1cc2c(=O)n(CCBr)cnc2s1",
    "GI50 (µg/mL)": 26.1
  }
]

Bench note: what GI50 did `CCCCCCCCCCc1cc2c(=O)n(CCBr)cnc2s1` show? 20.5

`CCCCCc1cc2c(=O)n(CCC)cnc2s1` ? 33.8

Similarly, `CC(=O)O[C@H]1C(=O)[C@@]2(C)[C@H]([C@H](OC(=O)c3ccccc3)[C@]3(O)C[C@H](OC(=O)[C@H](O)[C@@H](NC(=O)c4ccccc4)c4ccccc4)C(C)=C1C3(C)C)[C@]1(OC(C)=O)CO[C@@H]1C[C@@H]2O` ? 0.0048

----------
Experiment: Selectivity index, ratio of GI50 for human MCF7 cells to MIC90 for active stage of Mycobacterium tuberculosis H37Ra
Assay type: toxicity, cell-based
Settings: read-out: Selectivity Index
Quick list: selectivity ratio per entry.
Lab note: record the figure alone, no unit after it.

[
  {
    "Smiles text": "CO[C@H]1/C=C/O[C@@]2(C)Oc3c(C)c(O)c4c(O)c(c(/C=N/N5CCN(C)CC5)c(O)c4c3C2=O)NC(=O)/C(C)=C\\C=C\\[C@H](C)[C@H](O)[C@@H](C)[C@@H](O)[C@@H](C)[C@H](OC(C)=O)[C@@H]1C",
    "selectivity ratio": 196
  },
  {
    "Smiles text": "CCCCCCc1cc2c(=O)n(CC3CC3)cnc2s1",
    "selectivity ratio": 1
  },
  {
    "Smiles text": "CCCCCCCc1cc2c(=O)n(CCN=[N+]=[N-])cnc2s1",
    "selectivity ratio": 48
  },
  {
    "Smiles text": "CCCCCn1cnc2sc(CC)cc2c1=O",
    "selectivity ratio": 2
  },
  {
    "Smiles text": "CCCCCCc1cc2c(=O)n(CCN=[N+]=[N-])cnc2s1",
    "selectivity ratio": 12
  }
]

May I ask what selectivity ratio has been recorded for `CCCCCCCc1cc2c(=O)n(CC3CC3)cnc2s1` ? 2

Note, next up: `CCCCCCCCCCc1cc2c(=O)n(CCO)cnc2s1` 15

Quick one: `CCCCCCCc1cc2c(=O)n(CCCBr)cnc2s1` 1

Try this compound next: `CCCCCc1cc2c(=O)n(CCC)cnc2s1` 1

Input `CCCCCCCc1cc2c(=O)n(CC#N)cnc2s1` 40
